Biological target: Histone-lysine N-methyltransferase EHMT2 (Homo sapiens, UniProt Q96KQ7)
Sequence (Q96KQ7 whole entry): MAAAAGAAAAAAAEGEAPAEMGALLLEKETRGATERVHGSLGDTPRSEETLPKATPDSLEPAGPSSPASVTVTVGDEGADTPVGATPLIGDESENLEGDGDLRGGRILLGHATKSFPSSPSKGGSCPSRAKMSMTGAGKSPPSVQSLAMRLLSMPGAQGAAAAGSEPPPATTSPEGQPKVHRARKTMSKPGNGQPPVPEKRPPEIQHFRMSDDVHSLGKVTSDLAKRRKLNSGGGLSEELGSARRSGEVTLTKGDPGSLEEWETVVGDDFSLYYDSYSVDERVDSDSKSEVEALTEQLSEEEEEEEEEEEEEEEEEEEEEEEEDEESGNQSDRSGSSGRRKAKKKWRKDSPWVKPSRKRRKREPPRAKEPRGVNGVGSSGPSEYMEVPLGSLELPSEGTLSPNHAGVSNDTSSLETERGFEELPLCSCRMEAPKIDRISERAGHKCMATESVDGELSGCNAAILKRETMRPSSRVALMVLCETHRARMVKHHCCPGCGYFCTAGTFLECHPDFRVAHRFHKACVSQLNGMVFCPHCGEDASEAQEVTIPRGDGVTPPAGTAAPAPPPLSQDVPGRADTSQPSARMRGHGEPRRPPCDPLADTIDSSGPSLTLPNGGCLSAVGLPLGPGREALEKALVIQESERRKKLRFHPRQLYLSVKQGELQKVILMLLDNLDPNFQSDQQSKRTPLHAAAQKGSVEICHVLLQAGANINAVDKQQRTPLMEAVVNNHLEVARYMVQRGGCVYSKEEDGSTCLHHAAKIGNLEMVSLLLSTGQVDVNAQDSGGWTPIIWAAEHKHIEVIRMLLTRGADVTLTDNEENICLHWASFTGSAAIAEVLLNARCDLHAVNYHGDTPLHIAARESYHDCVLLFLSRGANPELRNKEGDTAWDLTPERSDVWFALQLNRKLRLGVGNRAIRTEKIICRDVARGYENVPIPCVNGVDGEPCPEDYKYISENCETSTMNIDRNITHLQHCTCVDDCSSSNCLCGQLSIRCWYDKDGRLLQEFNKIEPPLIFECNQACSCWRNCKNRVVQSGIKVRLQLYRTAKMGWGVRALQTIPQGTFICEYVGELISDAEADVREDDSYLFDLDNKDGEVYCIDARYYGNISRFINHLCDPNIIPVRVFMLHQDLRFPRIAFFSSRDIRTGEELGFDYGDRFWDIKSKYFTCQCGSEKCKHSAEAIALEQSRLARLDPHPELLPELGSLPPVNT
Test: Inhibition of recombinant human N-terminal GST-fused G9a (786 to 1210 residues) expressed in Escherichia coli using biotinylated H3 (1 to 21 residues) as substrate measured after 1 hr in presence of 3H-Adomet by filter binding assay
Result Type: pEC50
// scale note: pEC50 = -log10(conc_M); give the bare number

Previously resolved entries follow.
• COc1ccc(CCN2CCC(Nc3nc(NCc4ccc(F)cc4)nc4cc(OC)c(OC)cc34)CC2)cc1 = 4.50
• COc1cc2nc(NCc3ccc(F)cc3)nc(NC3CCN(C(=O)OC(C)(C)C)CC3)c2cc1OC = 3.86

Attention now turns to another entry.
COc1ccc(CCN2CCC(Nc3nc(NCc4ccc(F)cc4)nc4ccccc34)CC2)cc1 has a reported pEC50 of 4.29
